Molecular target: T1, human bradykinin BK-2 receptor protein (human, UniProt P30411 28-391)
T1 construct: also called human BK-2 bradykinin receptor; cloned BK receptor
T1 sequence: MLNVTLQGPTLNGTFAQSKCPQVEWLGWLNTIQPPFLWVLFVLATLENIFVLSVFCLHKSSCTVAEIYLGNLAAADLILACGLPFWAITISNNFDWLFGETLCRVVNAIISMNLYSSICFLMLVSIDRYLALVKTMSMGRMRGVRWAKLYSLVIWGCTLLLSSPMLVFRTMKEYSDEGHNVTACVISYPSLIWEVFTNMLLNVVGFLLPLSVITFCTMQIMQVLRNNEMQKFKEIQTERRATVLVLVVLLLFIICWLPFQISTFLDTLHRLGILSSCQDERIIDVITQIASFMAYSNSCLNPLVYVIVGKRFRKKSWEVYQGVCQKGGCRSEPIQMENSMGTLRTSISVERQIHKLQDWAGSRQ
Experiment: competition binding with 100 pM [3H]BK, cloned human BK-2 receptor in membranes
READOUT_LABEL: IC50 (nM)

INSERT INTO measurements (binder, obs_value) VALUES
  ('RRPPGFSPFR (numbered on bradykinin: D-Arg at 0; Hyp at 3; Thi at 5; D-Tic at 7; Oic at 8, Synthetic BK-2 antagonist with non-natural residues) [Hoe 140, D-Arg^0-[Hyp^3,Thi^5,D-Tic^7,Oic^8]BK]', 0.065);
